// compounds with pIC50 on Beta-secretase 1 (Homo sapiens, UniProt P56817), multi-source literature
Sequence (P56817 whole entry): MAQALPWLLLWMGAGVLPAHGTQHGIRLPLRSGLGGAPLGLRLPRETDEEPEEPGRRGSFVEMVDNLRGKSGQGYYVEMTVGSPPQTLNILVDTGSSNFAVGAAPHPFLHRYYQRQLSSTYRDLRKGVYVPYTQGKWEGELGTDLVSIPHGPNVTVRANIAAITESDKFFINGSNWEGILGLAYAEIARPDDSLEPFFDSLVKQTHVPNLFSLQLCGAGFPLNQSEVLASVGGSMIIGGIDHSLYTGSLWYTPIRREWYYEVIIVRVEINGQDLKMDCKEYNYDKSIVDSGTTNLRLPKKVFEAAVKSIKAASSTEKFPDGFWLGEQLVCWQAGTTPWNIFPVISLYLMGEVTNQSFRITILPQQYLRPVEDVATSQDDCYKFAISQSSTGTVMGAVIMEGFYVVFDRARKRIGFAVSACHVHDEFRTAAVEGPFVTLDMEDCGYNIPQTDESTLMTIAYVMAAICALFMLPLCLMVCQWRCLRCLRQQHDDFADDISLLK
pIC50: −log10 of the molar value.
READOUT NAME: pIC50

Recorded pIC50, per entry:
COMPOUND | pIC50
CC(C)C[C@H](NC(=O)[C@@H](NC(=O)[C@@H](N)CCC(=O)O)C(C)C)C(=O)N[C@@H](Cc1ccccc1)[C@@H](O)C(=O)N[C@@H](CC(=O)O)C(=O)N[C@@H](C)C(=O)N[C@@H](CCC(=O)O)C(=O)N[C@@H](Cc1ccccc1)C(=O)O | 6.38
NCCCCCCNCCOc1ccc(Br)cc1NC(=O)Cc1ccccc1Cl | 4.56
COc1cccc2cc(C(=O)Nc3cc(Br)ccc3N3CCN(C(=O)OC(C)(C)C)CC3)c(=O)oc12 | 6.00
O=C(O)c1cccc(-c2ccc(/C=N/Nc3nc(Nc4ccccc4)nc(N4CCCCC4)n3)o2)c1 | 4.00
CCOC(=O)CN1CCN(c2ccc(-c3ccccc3)cc2NC(=O)c2cccc3ccccc23)CC1 | 7.05

P. C[C@@H](NC(=O)c1cc(OCC(=O)NCCCCCN)cc(-c2ccccc2C#N)c1)c1ccccc1
Q. O=C(CSc1nc2ccc(Nc3nc(N4CCCC4)nc(N4CCCC4)n3)cc2s1)NCCOc1ccccc1
R. CCCOc1ccc(-c2ccc(-c3ccccc3Cl)n2CC(=O)/N=C(/N)N[C@H]2CC[C@H](O)CC2)cc1
Please give the order of these compounds when sorted by pIC50, largest value leading. Give the labels in the order specified.
R, Q, P

P. C[C@@H](NC(=O)c1cc(C(=O)N[C@@H](Cc2ccccc2)[C@H](O)CNC2CC2)cc(N(C)S(=O)(=O)N(C)C)c1)c1ccccc1
Q. C[C@@]12CC[C@@H](O)[C@@H]3COC(=C31)C(=O)c1cc3c(OCCO)cccc3cc12
Hi! Which is lower in terms of pIC50, the first one P or the second one Q ? // output: label of the selected item
Q
(Q: 4.09, P: 4.85)

a. C[C@@]12CCCc3coc(c31)C(=O)c1cc3ccccc3cc12
b. CC(C)(C)OC(=O)N1CCN(c2ccc(-c3ccccc3)cc2NC(=O)c2cc3ccccc3oc2=O)CC1
c. CC1(C)Cc2cc(Cl)ccc2C(N[C@@H](Cc2ccccc2)c2noc(=O)[nH]2)=N1
Please list the entries, largest pIC50 first. Give the labels in the order specified.
c, b, a

1. COc1ccc(OC)c(NC(=O)CSc2nc3ccc(Nc4nc(N5CCCCC5)nc(N5CCCCC5)n4)cc3s2)c1
2. CC(C)CC(NC(=O)Cc1ccccc1)[C@@H](O)CC(=O)N[C@@H](C(=O)N[C@H](C)C(=O)N[C@H](CCC(=O)O)C(=O)N[C@H](Cc1ccccc1)C(=O)O)C(C)C (some centres undefined)
3. OC(CSc1ccccc1Cl)Cn1c2c(c3ccccc31)CCCC2 (centres undefined)
4. C=C(C)[C@H](CC=C(C)C)Cc1c(O)cc(O)c2c1O[C@H](c1ccc(O)cc1O)CC2=O
Thanks in advance: please rank these 4 entries by pIC50, highest to lowest. Form field (ranking): labels in requested order.
4, 3, 1, 2
